- experimentSummary: Toxicokinetics in 7-day dose range finding study in rats
- Type: in vivo
- conditionSet: male, rat, plasma, oral, 300 mg/kg/day, males
propertyName: Cmax

Can you look up the measured Cmax of Cc1ccc(NC(=O)C2(c3ccc4c(c3)OC(F)(F)O4)CC2)nc1-c1cccc(C(=O)O)c1 for me? ~430 µM

----------
- experimentSummary: Toxicokinetics in acute oral toxicity study in mice
- Format: in vivo
- conditionSet: female, mouse, plasma, females at 2000 mg/kg
propertyName: Cmax

Value lookup for Cmax; key = Cc1ccc(NC(=O)C2(c3ccc4c(c3)OC(F)(F)O4)CC2)nc1-c1cccc(C(=O)O)c1 [Compound 1] 325 µg/mL

----------
- experimentSummary: Tissue distribution in male rats after single oral dose of 75 mg/kg
- Type: in vivo, male Sprague Dawley rats
- conditionSet: male, Sprague Dawley, rat, liver, po, 75 mg/kg, male rats; 75 mg/kg oral; 48 hr; read-out: Tissue/Plasma Ratio, Liver
propertyName: Kp at 48 hr
The response must contain the number and no unit.

Give its Kp at 48 hr value. Item: Cc1ccc(NC(=O)C2(c3ccc4c(c3)OC(F)(F)O4)CC2)nc1-c1cccc(C(=O)O)c1 1.78

----------
- experimentSummary: in vivo
- conditionSet: male, beagle, dog, 200 mg/kg
propertyName: AUC(0-inf) (µg·h/mL)
The reply should be a number in µg·h/mL, with the unit left off.

# get_value(readout='AUC(0-inf)', item= Cc1ccc(NC(=O)C2(c3ccc4c(c3)OC(F)(F)O4)CC2)nc1-c1cccc(C(=O)O)c1 ) 288

----------
- experimentSummary: Single oral pharmacokinetics of the free form in suspension in male rats
- Format: in vivo, male Sprague Dawley rats
- conditionSet: male, Sprague Dawley, rat, plasma, po, 300 mg/kg, male rats; free form; 300 mg/kg; read-out: t1/2 (converted)
propertyName: half-life (h)
State the answer as a number, implicitly in h.

Looking for the measured half-life of Cc1ccc(NC(=O)C2(c3ccc4c(c3)OC(F)(F)O4)CC2)nc1-c1cccc(C(=O)O)c1 , can you help? 5.86

----------
- experimentSummary: Single oral pharmacokinetics of the free form in suspension in male rats
- Type: in vivo, male Sprague Dawley rats
- conditionSet: Sprague Dawley, rat, plasma, po; male rats; free form; 1 mg/kg
propertyName: Cmax (ng/mL)
# output: bare number, implied unit ng/mL

Reported Cmax for Cc1ccc(NC(=O)C2(c3ccc4c(c3)OC(F)(F)O4)CC2)nc1-c1cccc(C(=O)O)c1 [Compound 1] : what is it? 1100

----------
- experimentSummary: Tissue distribution in male rats after single oral dose of 75 mg/kg
- Assay type: in vivo, male Sprague Dawley rats
- conditionSet: male, Sprague Dawley, rat, liver, po, 75 mg/kg, male rats; 75 mg/kg oral; Liver; read-out: Cmax Ratio (Tissue/Plasma)
- Method: Following a single oral administration of unlabelled Compound 1 to rats, the highest distribution was to the liver followed by lung, pancreas and brain with tissue-to-plasma ratios of 0.73, 0.19, 0.13 and 0.02, respectively, at one hour following oral administration of 75 mg/kg. […] Although the distribution to the lung is low relative to plasma, the concentrations measured in lung at low and moderate doses are predicted to be efficacious.
propertyName: Kp
No unit in the answer, only the number.

Quick one: Kp of Cc1ccc(NC(=O)C2(c3ccc4c(c3)OC(F)(F)O4)CC2)nc1-c1cccc(C(=O)O)c1 ? 0.64

----------
- experimentSummary: Tissue distribution in male rats after single oral dose of 75 mg/kg
- Type: in vivo, male Sprague Dawley rats
- conditionSet: male, Sprague Dawley, rat, pancreas, po, 75 mg/kg, male rats; 75 mg/kg oral; 48 hr; read-out: Tissue/Plasma Ratio, Pancreas
propertyName: Kp at 48 hr
A bare number is all that is needed in reply.

Returns the measured Kp at 48 hr for the input compound. Input: Cc1ccc(NC(=O)C2(c3ccc4c(c3)OC(F)(F)O4)CC2)nc1-c1cccc(C(=O)O)c1 0.15

----------
- experimentSummary: Tissue distribution in male rats after single oral dose of 75 mg/kg
- Type: in vivo, male Sprague Dawley rats
- conditionSet: Sprague Dawley, rat; male rats; 75 mg/kg oral; Pancreas; read-out: Clast
propertyName: concentration at 48 hr (ng/mL)
Output spec: scalar in ng/mL, unitless text.

Dear colleague, I am looking for the recorded concentration at 48 hr of the following compound: Cc1ccc(NC(=O)C2(c3ccc4c(c3)OC(F)(F)O4)CC2)nc1-c1cccc(C(=O)O)c1 86

----------
- experimentSummary: Single oral pharmacokinetics of the free form in suspension in male rats
- Format: in vivo, male Sprague Dawley rats
- conditionSet: male, Sprague Dawley, rat, plasma; rats; across the oral dose range, fed conditions
propertyName: Tmax

May I ask what Tmax has been recorded for Cc1ccc(NC(=O)C2(c3ccc4c(c3)OC(F)(F)O4)CC2)nc1-c1cccc(C(=O)O)c1 [Compound 1] ? 3 to 4.7 h

----------
- experimentSummary: Single oral pharmacokinetics of the free form in suspension in male rats
- Assay type: in vivo, male Sprague Dawley rats
- conditionSet: Sprague Dawley, rat, plasma, po; male rats; free form suspension; nominal dose 30 mg/kg; mean (SD)
propertyName: AUC(0-inf) (µg·h/mL)
Numeric answer only, unit µg·h/mL assumed.

I have this molecule here, Cc1ccc(NC(=O)C2(c3ccc4c(c3)OC(F)(F)O4)CC2)nc1-c1cccc(C(=O)O)c1 , and I need its recorded AUC(0-inf). 369

----------
- experimentSummary: Single oral pharmacokinetics of the free form in suspension in male rats
- Type: in vivo, male Sprague Dawley rats
- conditionSet: Sprague Dawley, rat, plasma, oral; male rats; free form; 30 mg/kg; read-out: Clast
propertyName: concentration at 48 h (ng/mL)
// units = ng/mL; emit number, no label

State the recorded concentration at 48 h for this entry: Cc1ccc(NC(=O)C2(c3ccc4c(c3)OC(F)(F)O4)CC2)nc1-c1cccc(C(=O)O)c1 [Compound 1] 44

----------
- experimentSummary: Toxicokinetics in 14-day oral toxicity study in rats
- conditionSet: male, Sprague Dawley, rat, in vivo, 600 mg/kg/day, Study Day 14, Male, read-out: AUC0-24 hr
propertyName: AUC(0-t) (µg·h/mL)
Express the result in µg·h/mL but write the number alone.

// lookup AUC(0-t) for Cc1ccc(NC(=O)C2(c3ccc4c(c3)OC(F)(F)O4)CC2)nc1-c1cccc(C(=O)O)c1 3220

----------
- experimentSummary: Tissue distribution in male rats after single oral dose of 75 mg/kg
- Type: in vivo, male Sprague Dawley rats
- conditionSet: Sprague Dawley, rat; male rats; 75 mg/kg oral; Liver
propertyName: AUC(0-inf) (µg·h/mL)
# unit: µg·h/mL | format: bare number

Could you tell me which AUC(0-inf) is on file for Cc1ccc(NC(=O)C2(c3ccc4c(c3)OC(F)(F)O4)CC2)nc1-c1cccc(C(=O)O)c1 ? 885

----------
- experimentSummary: Toxicokinetics in acute oral toxicity study in mice
- Format: in vivo
- conditionSet: female, mouse, plasma, females at 500 mg/kg, read-out: AUC0-24hr
propertyName: AUC(0-t) (µg·h/mL)
Field format: number, assumed µg·h/mL, no unit text.

What does the record list as AUC(0-t) for Cc1ccc(NC(=O)C2(c3ccc4c(c3)OC(F)(F)O4)CC2)nc1-c1cccc(C(=O)O)c1 ? 1840

----------
- experimentSummary: Toxicokinetics in 14-day oral toxicity study in rats
- conditionSet: female, Sprague Dawley, rat, in vivo, 600 mg/kg/day, Study Day 14, Female, read-out: Cmax
propertyName: Cmax (µg/mL)
Express it in µg/mL; write the number only.

Quick one: Cmax for Cc1ccc(NC(=O)C2(c3ccc4c(c3)OC(F)(F)O4)CC2)nc1-c1cccc(C(=O)O)c1 [Compound 1] ? 272

----------
- experimentSummary: Oral pharmacokinetics of Compound 1 in fed or fasted male dogs at 10 mg/kg
- Format: in vivo, male beagle dogs
- conditionSet: male, beagle, plasma, po; dog; 10 mg/kg orally in a methylcellulose suspension
propertyName: bioavailability (%)
Supply the numeric figure in %, leaving out any unit text.

Which bioavailability reading was recorded for the molecule Cc1ccc(NC(=O)C2(c3ccc4c(c3)OC(F)(F)O4)CC2)nc1-c1cccc(C(=O)O)c1 ? 53

----------
- experimentSummary: Toxicokinetics in 14-day oral toxicity study in rats
- conditionSet: male, Sprague Dawley, rat, in vivo, 600 mg/kg/day, Study Day 14, Male, read-out: Cmax
propertyName: Cmax (µg/mL)
Entry rule: numbers only, all in µg/mL.

Looking for the measured Cmax of Cc1ccc(NC(=O)C2(c3ccc4c(c3)OC(F)(F)O4)CC2)nc1-c1cccc(C(=O)O)c1 , can you help? 181

----------
- experimentSummary: Tissue distribution in male rats after single oral dose of 75 mg/kg
- Type: in vivo, male Sprague Dawley rats
- conditionSet: Sprague Dawley, rat; male rats; 75 mg/kg oral; Liver; read-out: Clast
propertyName: concentration at 48 hr (ng/mL)
Provide only the numeric value, understood in ng/mL.

What does the data say about its concentration at 48 hr? Entry: Cc1ccc(NC(=O)C2(c3ccc4c(c3)OC(F)(F)O4)CC2)nc1-c1cccc(C(=O)O)c1 965
